assay.overview: Aqueous Partition Value of a dye (water/1-octanol partitioning, absorbance at λmax)
Assay type: physicochemical
condition.info: deionized water/1-octanol 10.0 mL each, APV=(Af/Ai)×100%
Experimental: Dissolve in deionized water to a final volume of 10.0 mL an amount of dye sufficient to provide a solution absorbance value between 0.25 and 1.0, said absorbance being determined at the dye λmax between 400 nm and 750 nm, using a cuvette with 1.0 cm path length. Measure the absorbance of the sample at the dye λmax in a UV/Vis spectrophotometer, then transfer the entire 10.0 mL solution to a 50.0 mL plastic centrifuge tube. […]
Field 'label' (enum: condition met / condition not met). Set to condition met when % Dye in Water Layer is strictly under 60%; else condition not met.

INPUT: Below 60% on % Dye in Water Layer? Entry `CCN(CCOCCOCCOCCOCC[N+](CC)(CC)CC)c1ccc(/N=N/c2sc(C#N)c(C)c2C#N)c(C)c1`
OUTPUT: condition met

INPUT: Also need `CC[N+](CC)(CC)CCOCCOCCN(CCOCC[N+](CC)(CC)CC)c1cc(OC)c(/N=N/c2sc(C#N)c(C)c2C#N)cc1OC` , thanks.
OUTPUT: condition not met

INPUT: Also need `COc1cc(/N=N/c2sc(C#N)c(C)c2C#N)c(C)cc1N(CCOCCOCC[N+](C)(C)CCO)CCOCC[N+](C)(C)CCO` , thanks.
OUTPUT: condition not met

INPUT: Also need `CC[N+](CC)(CC)CCOCCOCCN(CCOCC[N+](CC)(CC)CC)c1cc(C)c(/N=N/c2sc(C#N)c(C)c2C#N)cc1OC` , thanks.
OUTPUT: condition met

INPUT: Also need `CCN(CC[N+](CC)(CC)CC)c1ccc(/N=N/c2sc(C#N)c(C)c2C#N)c(C)c1` , thanks.
OUTPUT: condition met

INPUT: Also need `Cc1cc(N(CCn2cc[n+](C)c2)CCn2cc[n+](C)c2)ccc1/N=N/c1sc(C#N)c(C)c1C#N` , thanks.
OUTPUT: condition not met

INPUT: Also need `CC[N+](CC)(CC)CCOCCOCCN(CCOCC[N+](CC)(CC)CC)c1ccc(/N=N/c2sc(C#N)c(C)c2C#N)c(C)c1` , thanks.
OUTPUT: condition not met

INPUT: Also need `CC[N+](CC)(CC)CCN(CC[N+](CC)(CC)CC)c1ccc(/N=N/c2sc(C#N)c(C)c2C#N)c(C)c1` , thanks.
OUTPUT: condition not met

INPUT: Also need `COc1cc(/N=N/c2sc(C#N)c(C)c2C#N)c(C)cc1N(CCOCCOCC[N+](CCO)(CCO)CCO)CCOCC[N+](CCO)(CCO)CCO` , thanks.
OUTPUT: condition met

INPUT: Also need `COc1cc(/N=N/c2sc(C#N)c(C)c2C#N)c(C)cc1N(CCn1cc[n+](C)c1)CCn1cc[n+](C)c1` , thanks.
OUTPUT: condition not met
